Catalogue of PBM E-score readings, one per entry.
Assay system: Pdr3 (UniProt P33200)
Sequence: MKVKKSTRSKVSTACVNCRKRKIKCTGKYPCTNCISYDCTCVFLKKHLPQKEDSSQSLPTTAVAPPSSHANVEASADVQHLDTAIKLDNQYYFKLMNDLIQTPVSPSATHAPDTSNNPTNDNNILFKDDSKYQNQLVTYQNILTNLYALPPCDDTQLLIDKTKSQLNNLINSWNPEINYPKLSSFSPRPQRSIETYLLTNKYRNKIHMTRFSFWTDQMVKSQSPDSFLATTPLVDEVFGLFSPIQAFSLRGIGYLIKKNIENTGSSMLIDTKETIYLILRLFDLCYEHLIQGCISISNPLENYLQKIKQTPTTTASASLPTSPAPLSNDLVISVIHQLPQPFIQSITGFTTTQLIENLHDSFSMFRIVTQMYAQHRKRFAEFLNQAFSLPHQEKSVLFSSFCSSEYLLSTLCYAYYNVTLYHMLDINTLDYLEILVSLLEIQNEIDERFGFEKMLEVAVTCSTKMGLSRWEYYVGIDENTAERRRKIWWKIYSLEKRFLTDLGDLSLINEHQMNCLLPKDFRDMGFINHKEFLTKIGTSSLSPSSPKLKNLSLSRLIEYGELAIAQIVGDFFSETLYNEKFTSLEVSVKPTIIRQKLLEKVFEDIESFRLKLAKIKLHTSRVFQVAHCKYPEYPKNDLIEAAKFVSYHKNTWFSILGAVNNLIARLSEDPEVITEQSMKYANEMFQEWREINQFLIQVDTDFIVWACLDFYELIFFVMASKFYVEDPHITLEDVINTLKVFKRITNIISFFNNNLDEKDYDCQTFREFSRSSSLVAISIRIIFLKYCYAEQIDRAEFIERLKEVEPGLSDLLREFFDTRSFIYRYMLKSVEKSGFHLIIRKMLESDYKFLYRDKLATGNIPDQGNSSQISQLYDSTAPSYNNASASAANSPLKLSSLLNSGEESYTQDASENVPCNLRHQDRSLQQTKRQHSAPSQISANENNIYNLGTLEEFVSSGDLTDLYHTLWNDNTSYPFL
Assay comment: PBM E-score (8-mer binding enrichment) (E-score (-0.5 to 0.5)); higher = stronger / more preferred TF binding
Condition set: protein concentration: 200 nM; construct: GST-full length
Whole data set: some 33,000 sequences, median “E-score (-0.5 to 0.5)” near -0.035, cut for the highest 2% near 0.35. The sample holds the highest values, similar sequences and a random draw of the others, so the mix is not that of the screen.
Attribute measured: PBM E-score

# Residue sequence, Assay system, Recorded value
rows = [
    ("CACCGGGG", "Pdr3 (UniProt P33200)", 0.0593),
    ("GCCGGCAA", "Pdr3 (UniProt P33200)", 0.37),
    ("GAAACGAA", "Pdr3 (UniProt P33200)", 0.0452),
    ("CCCGCCCA", "Pdr3 (UniProt P33200)", 0.231),
    ("TAAACGTA", "Pdr3 (UniProt P33200)", -0.137),
    ("ATCGCCGA", "Pdr3 (UniProt P33200)", 0.154),
    ("CCCGGCAA", "Pdr3 (UniProt P33200)", 0.286),
    ("GTTGCGGA", "Pdr3 (UniProt P33200)", 0.236),
    ("ATCAGCGC", "Pdr3 (UniProt P33200)", 0.207),
    ("AGGATATC", "Pdr3 (UniProt P33200)", -0.0388),
    ("CCCCGGGG", "Pdr3 (UniProt P33200)", 0.412),
    ("CGGATACC", "Pdr3 (UniProt P33200)", 0.31),
    ("AACCCGGG", "Pdr3 (UniProt P33200)", 0.424),
    ("AAATAGGT", "Pdr3 (UniProt P33200)", -0.15),
    ("CCCGCCGC", "Pdr3 (UniProt P33200)", 0.27),
    ("CCCGCCGG", "Pdr3 (UniProt P33200)", 0.373),
    ("GGCCAGAC", "Pdr3 (UniProt P33200)", 0.075),
    ("CCCTGCTA", "Pdr3 (UniProt P33200)", -0.0619),
    ("CCCGCCCC", "Pdr3 (UniProt P33200)", 0.357),
    ("ATCGCCGG", "Pdr3 (UniProt P33200)", 0.373),
    ("TAAACGAA", "Pdr3 (UniProt P33200)", -0.0987),
    ("AGCATTCA", "Pdr3 (UniProt P33200)", -0.0565),
    ("TTCGGCAA", "Pdr3 (UniProt P33200)", -0.0284),
    ("CGGATATC", "Pdr3 (UniProt P33200)", 0.391),
    ("AACCCCGG", "Pdr3 (UniProt P33200)", 0.312),
    ("CCCGCCCG", "Pdr3 (UniProt P33200)", 0.372),
    ("ATCGCCGC", "Pdr3 (UniProt P33200)", 0.166),
    ("AAGGGCAC", "Pdr3 (UniProt P33200)", -0.157),
    ("CGGATAAA", "Pdr3 (UniProt P33200)", 0.383),
    ("TACGGCAA", "Pdr3 (UniProt P33200)", -0.034),
    ("AAAACGGA", "Pdr3 (UniProt P33200)", 0.314),
    ("ATGTCTGA", "Pdr3 (UniProt P33200)", -0.106),
    ("AACCCGGT", "Pdr3 (UniProt P33200)", 0.258),
    ("AAAAGTTG", "Pdr3 (UniProt P33200)", 0.00957),
    ("TGGATAAA", "Pdr3 (UniProt P33200)", 0.103),
    ("CGGATACA", "Pdr3 (UniProt P33200)", 0.364),
    ("AACGCAGG", "Pdr3 (UniProt P33200)", -0.0195),
    ("CGCGCCCG", "Pdr3 (UniProt P33200)", 0.23),
    ("ATCAGCGG", "Pdr3 (UniProt P33200)", 0.364),
    ("CCCGCCGA", "Pdr3 (UniProt P33200)", 0.305),
    ("GTATGGAC", "Pdr3 (UniProt P33200)", 0.0423),
    ("ACCGCCCC", "Pdr3 (UniProt P33200)", 0.148),
    ("ACGCCGAC", "Pdr3 (UniProt P33200)", 0.163),
    ("ACCAGTCG", "Pdr3 (UniProt P33200)", -0.0214),
    ("AGTCAAAA", "Pdr3 (UniProt P33200)", -0.104),
    ("CCCGACCA", "Pdr3 (UniProt P33200)", 0.155),
]

----------
Assay system: Pdr3 (UniProt P33200)
Sequence: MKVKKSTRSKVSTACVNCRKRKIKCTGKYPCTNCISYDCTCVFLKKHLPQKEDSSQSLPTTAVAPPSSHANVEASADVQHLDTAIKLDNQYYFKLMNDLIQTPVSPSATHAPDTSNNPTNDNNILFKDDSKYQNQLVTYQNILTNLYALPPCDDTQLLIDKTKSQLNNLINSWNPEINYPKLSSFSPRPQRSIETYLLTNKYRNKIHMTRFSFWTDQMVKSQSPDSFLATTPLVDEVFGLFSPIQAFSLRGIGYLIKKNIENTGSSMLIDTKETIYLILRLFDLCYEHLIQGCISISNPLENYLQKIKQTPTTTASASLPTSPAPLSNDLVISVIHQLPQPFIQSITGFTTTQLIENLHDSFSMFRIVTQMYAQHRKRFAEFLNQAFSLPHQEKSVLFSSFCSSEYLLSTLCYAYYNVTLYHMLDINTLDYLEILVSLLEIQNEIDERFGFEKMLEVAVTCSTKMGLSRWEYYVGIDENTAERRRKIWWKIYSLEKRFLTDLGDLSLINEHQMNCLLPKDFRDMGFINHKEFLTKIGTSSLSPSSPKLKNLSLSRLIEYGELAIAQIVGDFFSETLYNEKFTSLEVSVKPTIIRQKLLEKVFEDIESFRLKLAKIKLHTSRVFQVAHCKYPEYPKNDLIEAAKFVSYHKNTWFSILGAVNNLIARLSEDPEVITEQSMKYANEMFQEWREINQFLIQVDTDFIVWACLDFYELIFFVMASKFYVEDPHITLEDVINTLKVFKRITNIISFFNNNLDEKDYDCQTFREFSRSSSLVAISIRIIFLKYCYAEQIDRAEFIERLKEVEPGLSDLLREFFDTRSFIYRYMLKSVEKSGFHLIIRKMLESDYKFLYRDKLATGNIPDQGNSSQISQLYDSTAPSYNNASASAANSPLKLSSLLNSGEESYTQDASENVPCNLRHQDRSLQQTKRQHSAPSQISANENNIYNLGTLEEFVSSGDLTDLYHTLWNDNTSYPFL
Assay comment: PBM E-score (8-mer binding enrichment) (E-score (-0.5 to 0.5)); higher = stronger / more preferred TF binding
Condition set: protein concentration: 200 nM; construct: GST-full length
Over roughly 33,000 sequences, “E-score (-0.5 to 0.5)” has its median near -0.035; the highest 2% begin near 0.35. The list comes from a sample in which the highest values are over-represented; it also holds close analogues and randomly drawn sequences.
Catalogue of PBM E-score readings, one per entry.
Attribute measured: PBM E-score

# Residue sequence, Attribute measured, Recorded value
data = [
    ("CCTCCGCG", "PBM E-score", 0.445),
    ("ACAGTGGT", "PBM E-score", -0.156),
    ("CGCGGCAC", "PBM E-score", 0.385),
    ("CGCGGCGC", "PBM E-score", 0.398),
    ("ACGTACGA", "PBM E-score", -0.133),
    ("ATTGTCGG", "PBM E-score", 0.193),
    ("AATCGTCA", "PBM E-score", -0.112),
    ("AGCGGCGC", "PBM E-score", 0.137),
    ("CGGGGTAA", "PBM E-score", 0.267),
    ("ATCCCGTG", "PBM E-score", 0.396),
    ("GGAACGGA", "PBM E-score", 0.431),
    ("CTCTCGGA", "PBM E-score", 0.358),
    ("GTCTCGGA", "PBM E-score", 0.306),
    ("ACTCCGCT", "PBM E-score", 0.14),
    ("AGATCGGC", "PBM E-score", 0.134),
    ("TAATCGGA", "PBM E-score", 0.324),
    ("GGAACCGA", "PBM E-score", 0.406),
    ("CTCTCGAA", "PBM E-score", -0.197),
    ("ATCTCGGA", "PBM E-score", 0.376),
    ("GCAGTCGC", "PBM E-score", -0.0644),
    ("ACAATGCA", "PBM E-score", 0.0617),
    ("CGAACGGA", "PBM E-score", 0.407),
    ("GGCGGCGA", "PBM E-score", 0.243),
    ("ACCGATGG", "PBM E-score", -0.0565),
    ("GGATCGGA", "PBM E-score", 0.359),
    ("AGATCGGA", "PBM E-score", 0.394),
    ("GAATCGGA", "PBM E-score", 0.36),
    ("ATCCCGTA", "PBM E-score", 0.242),
    ("AATAGGCG", "PBM E-score", 0.313),
    ("TCGCTAGA", "PBM E-score", -0.125),
    ("ATCCCGAA", "PBM E-score", 0.308),
    ("CTGTTGAC", "PBM E-score", -0.162),
    ("CAGCTTAC", "PBM E-score", -0.193),
    ("CGCATCAC", "PBM E-score", -0.0776),
    ("ATAACGCG", "PBM E-score", 0.168),
    ("ATCCCGTC", "PBM E-score", 0.311),
    ("AGCAACCT", "PBM E-score", -0.0661),
    ("AGCGGCGA", "PBM E-score", 0.197),
    ("CTACAAAG", "PBM E-score", -0.116),
    ("GGATCGAA", "PBM E-score", 0.133),
    ("CTGGGAGC", "PBM E-score", -0.192),
    ("GGATCCGA", "PBM E-score", 0.399),
    ("AAATCGGA", "PBM E-score", 0.326),
    ("CCCGCCAC", "PBM E-score", 0.254),
    ("CGGCGCGC", "PBM E-score", 0.245),
    ("CTCGGTCA", "PBM E-score", 0.00197),
]
